Reference source: ChEMBL document CHEMBL4414679

- Tested on: PC-9
- protocol description: Antiproliferative activity against human PC9 cells assessed as inhibition of cell growth at 10 uM incubated for 48 hrs by MTT assay relative to control
- Assay type: functional
- measurement setup: PC-9, 48 h
measured attribute: inhibition at 10 µM (%)
# value in %; strip the unit string

Sample answers from the record:
compound	unit text	inhibition at 10 µM
Cc1ccc(Nc2cc(NC(=O)Nc3c(Cl)cccc3Cl)ncn2)cc1F	%	92
Cc1cc(F)cc(Nc2cc(NC(=O)Nc3c(Cl)cccc3Cl)ncn2)c1	%	80
COc1cc(NC(=O)Nc2cc(Nc3cc(OC)cc(OC)c3)ncn2)cc(OC)c1	%	76.5
COc1cc(Br)ccc1Nc1cc(NC(=O)Nc2c(Cl)cccc2Cl)ncn1	%	90.5
COc1cc(NC(=O)Nc2cc(Nc3cc(OC)cc(C(F)(F)F)c3)ncn2)cc(OC)c1	%	88.1
COc1ccc(C(F)(F)F)cc1Nc1cc(NC(=O)Nc2c(Cl)cccc2Cl)ncn1	%	89

Fill in: inhibition at 10 µM of COc1ccc(Nc2cc(NC(=O)Nc3c(Cl)cccc3Cl)ncn2)cc1C is ___
80.1

Fill in: inhibition at 10 µM of CC(C)(C)c1ccc(Nc2cc(NC(=O)Nc3c(Cl)cccc3Cl)ncn2)cc1 is ___
41.5
